Test system: Pseudomonas aeruginosa
Experiment summary: Antibacterial activity against Pseudomonas aeruginosa MTCC 424 assessed as zone of inhibition at 100 ug/ml by disc diffusion method
Format: functional
Test context: read-out: IZ
Measured property: zone of inhibition at 100 µg/mL

Solved entries:
Cc1cc(NS(=O)(=O)c2ccc(Cl)cc2)c2oc(COC(=O)NCc3ccccc3)cc2c1: 11 to 28 mm
O=C(O)c1cn(C2CC2)c2cc(N3CCNCC3)c(F)cc2c1=O: 21 to 28 mm
COc1ccc(S(=O)(=O)Nc2cc(C)cc3cc(COC(=O)NCc4ccccc4)oc23)cc1: 19 to 28 mm
Cc1cc(NC(=O)c2ccccc2)c2oc(COC(=O)NCc3ccccc3)cc2c1: 11 to 28 mm

Now take the following molecule into account.
Task: Give recorded zone of inhibition at 100 µg/mL with Pseudomonas aeruginosa for the following molecule: `Cc1ccc(S(=O)(=O)Nc2cc(C)cc3cc(COC(=O)NCc4ccccc4)oc23)cc1`
Output: 11 to 28 mm

###

Give MIC for every item shown.
Test system: Proteus vulgaris
Experiment summary: Antibacterial activity against Proteus vulgaris after 24 hrs
Format: functional
Numbers only, in µg/mL.

O=C1Nc2c(cccc2[N+](=O)[O-])/C1=N/NC(=O)c1cc2ccccc2o1: 31.2
O=C1Nc2c(O)cccc2/C1=N/NC(=O)c1cc2ccccc2o1: 31.2
CC1(C)S[C@@H]2[C@H](NC(=O)[C@H](N)c3ccccc3)C(=O)N2[C@H]1C(=O)O: 3.9

Now take the following compound into account.
Task: What value of MIC has been recorded for this entry: `CCn1cc(C(=O)O)c(=O)c2cc(F)c(N3CCNCC3)cc21`
Output: 62.5

###

Test system: Pseudomonas aeruginosa
Experiment summary: Antibacterial activity against Pseudomonas aeruginosa MTCC 424 assessed as zone of inhibition at 100 ug/ml by disc diffusion method
Format: functional
Test context: read-out: IZ
Measured property: zone of inhibition at 100 µg/mL

Cc1cc(NS(C)(=O)=O)c2oc(COC(=O)NCc3ccccc3)cc2c1: 19 to 28 mm
CC(=O)Nc1cc(C)cc2cc(COC(=O)NCc3ccccc3)oc12: 11 to 28 mm
Cc1cc(NS(=O)(=O)c2ccccc2)c2oc(COC(=O)NCc3ccccc3)cc2c1: 11 to 28 mm

Task: What value of zone of inhibition at 100 µg/mL has been recorded for this entry: `Cc1cc(NS(=O)(=O)c2cccs2)c2oc(COC(=O)NCc3ccccc3)cc2c1`
Output: 11 to 28 mm

###

Give zone of inhibition at 50 µg/mL for every item shown.
System: Escherichia coli
Experiment summary: Antibacterial activity against Escherichia coli assessed as zone of inhibition at 50 ug/ml after 3 days by filter paper disc method
Type: functional
Test context: 72 h, read-out: IZ

Solved entries:
CC1(C)S[C@@H]2[C@H](NC(=O)[C@H](N)c3ccccc3)C(=O)N2[C@H]1C(=O)O: 10 to 30 mm
O=C1/C(=C\c2cn(-c3ccccc3)nc2-c2cccs2)Oc2cc(Cl)ccc21: 13 to 33 mm

Batch: zone of inhibition at 50 µg/mL for all items listed.
1. O=C(O)c1cn(C2CC2)c2cc(N3CCNCC3)c(F)cc2c1=O
2. Nc1nn2c(-c3ccc(N4CCCCC4)cc3)cc(-c3cc4ccccc4o3)nc2c1/N=N/c1ccccc1

Output:
1: 25 to 28 mm; 2: 9 to 18 mm

###

Give MIC for every item shown.
Test system: Bacillus spizizenii
Experiment summary: Antibacterial activity against Bacillus subtilis ATCC 6633 after 24 hrs by broth dilution method
Type: functional
Test context: ATCC 6633, 24 h

O=C(c1ccc(Br)cc1)c1oc2ccc(Br)cc2c1/C=C/c1c[nH]c2ccccc12: 3.12 to 6.25 µg/mL
CCOc1ccc(-c2nn(-c3ccccc3)cc2/C=C/c2oc3c4c(ccc3c2C(=O)c2ccc(Br)cc2)OCC=C4)cc1: 6.3 to 25 µg/mL
COc1ccc(-c2nn(-c3ccccc3)cc2/C=C/c2oc3c4c(ccc3c2C(=O)c2ccc(Br)cc2)OCC=C4)cc1OC: 1.6 to 3.1 µg/mL

Now take the following compound into account.
Task: What value of MIC has been recorded for this entry: `COc1ccc(-c2nn(-c3ccccc3)cc2/C=C/c2oc3c4c(ccc3c2C(=O)c2ccc(Br)cc2)OCC=C4)cc1`
Output: 3.1 to 6.3 µg/mL

###

Test system: Proteus vulgaris
Experiment summary: Antibacterial activity against Proteus vulgaris […] after 24 hrs by broth dilution method
Assay type: functional
Measured property: MIC

Solved entries:
COc1ccc(-c2nn(-c3ccccc3)cc2/C=C/c2oc3c4c(ccc3c2C(=O)c2ccc(Br)cc2)OCC=C4)cc1: 3.1 to 6.3 µg/mL
O=C(c1ccc(Br)cc1)c1oc2ccc(Br)cc2c1/C=C/c1c[nH]c2ccccc12: 3.12 to 6.25 µg/mL
COc1ccc(-c2nn(-c3ccccc3)cc2/C=C/c2oc3c4c(ccc3c2C(=O)c2ccc(Br)cc2)OCC=C4)cc1OC: 1.6 to 3.1 µg/mL

Now take the following molecule into account.
Task: What value of MIC has been recorded for this entry: `CCOc1ccc(-c2nn(-c3ccccc3)cc2/C=C/c2oc3c4c(ccc3c2C(=O)c2ccc(Br)cc2)OCC=C4)cc1`
Output: 6.3 to 25 µg/mL

###

Test system: Escherichia coli
Experiment summary: Antibacterial activity against Escherichia coli ATCC 11229 after 24 hrs by broth dilution method
Format: functional
Test context: ATCC 11229, 24 h
Measured property: MIC

COc1ccc(-c2nn(-c3ccccc3)cc2/C=C/c2oc3c4c(ccc3c2C(=O)c2ccc(Br)cc2)OCC=C4)cc1: 3.1 to 6.3 µg/mL

Batch: MIC for all items listed.
1. CCOc1ccc(-c2nn(-c3ccccc3)cc2/C=C/c2oc3c4c(ccc3c2C(=O)c2ccc(Br)cc2)OCC=C4)cc1
2. COc1ccc(-c2nn(-c3ccccc3)cc2/C=C/c2oc3c4c(ccc3c2C(=O)c2ccc(Br)cc2)OCC=C4)cc1OC
3. O=C(c1ccc(Br)cc1)c1oc2ccc(Br)cc2c1/C=C/c1c[nH]c2ccccc12

Output:
1: 6.3 to 25 µg/mL; 2: 1.6 to 3.1 µg/mL; 3: 3.12 to 6.25 µg/mL

###

Test system: Pseudomonas aeruginosa
Experiment summary: Antibacterial activity against Pseudomonas aeruginosa MTCC 1034 after 24 hrs by broth dilution method
Assay type: functional
Test context: MTCC 1034, 24 h
Measured property: MIC

Solved entries:
Nc1nc(-c2cc3cc(Br)ccc3o2)cc(-c2cccs2)n1: 4.32 to 18.4 µg/mL
Cc1ccc(-c2cc(-c3cc4cc(Br)ccc4o3)nc(S)n2)s1: 4.32 to 18.4 µg/mL
Cc1ccc(-c2cc(-c3cc4ccccc4o3)nc(S)n2)s1: 4.32 to 18.4 µg/mL

Batch: MIC for all items listed.
1. Cc1ccc(-c2cc(-c3cc4cc(Br)ccc4o3)nc(N)n2)s1
2. CN[C@@H]1[C@H](O[C@H]2[C@H](O[C@H]3[C@H](O)[C@@H](O)[C@H](N=C(N)N)[C@@H](O)[C@@H]3N=C(N)N)O[C@@H](C)[C@]2(O)C=O)O[C@@H](CO)[C@H](O)[C@H]1O [STREPTOMYCIN]
3. Oc1nc(-c2cc3ccccc3o2)cc(-c2cccs2)n1
4. Sc1nc(-c2cc3cc(Br)ccc3o2)cc(-c2cccs2)n1
5. Nc1nc(-c2cc3ccccc3o2)cc(-c2cccs2)n1
6. Cc1ccc(-c2cc(-c3cc4ccccc4o3)nc(O)n2)s1

Output:
["4.32 to 18.4 µg/mL", "17.2 to 19.4 µg/mL", "4.32 to 18.4 µg/mL", "4.32 to 18.4 µg/mL", "4.32 to 18.4 µg/mL", "4.32 to 18.4 µg/mL"]

Batch: MIC for all items listed.
1. Oc1nc(-c2cc3cc(Br)ccc3o2)cc(-c2cccs2)n1
2. Sc1nc(-c2cc3ccccc3o2)cc(-c2cccs2)n1
3. Cc1ccc(-c2cc(-c3cc4cc(Br)ccc4o3)nc(O)n2)s1
4. Cc1ccc(-c2cc(-c3cc4ccccc4o3)nc(N)n2)s1

Output:
["4.32 to 18.4 µg/mL", "4.32 to 18.4 µg/mL", "4.32 to 18.4 µg/mL", "4.32 to 6.32 µg/mL"]

###

Test system: Staphylococcus aureus
Experiment summary: Antibacterial activity against Staphylococcus aureus assessed as zone of inhibition at 1 mg/ml after 32 hrs by agar-well diffusion method
Type: functional
Test context: read-out: IZ
Give zone of inhibition at 1000 µg/mL for every item shown.

Solved entries:
Brc1ccc2oc(-c3csc4nc(-c5cc6ccccc6o5)cn34)cc2c1: 6 to 23 mm
Cc1ccc(-c2csc3nc(-c4cc5cc(Br)ccc5o4)cn23)cc1: 6 to 23 mm
Fc1ccc(-c2csc3nc(-c4cc5cc(Br)ccc5o4)cn23)cc1: 6 to 23 mm
CC1(C)S[C@@H]2[C@H](NC(=O)[C@H](N)c3ccccc3)C(=O)N2[C@H]1C(=O)O [AMPICILLIN]: 20 to 28 mm
Brc1ccc2oc(-c3cn4c(-c5cc6ccccc6o5)csc4n3)cc2c1: 6 to 23 mm
Brc1ccc2oc(-c3cn4c(-c5cc6cc(Br)ccc6o5)csc4n3)cc2c1: 6 to 23 mm
Fc1ccc(-c2csc3nc(-c4cc5ccccc5o4)cn23)cc1: 6 to 23 mm
Brc1ccc2oc(-c3cn4c(-c5ccccc5)csc4n3)cc2c1: 15 to 20 mm

Batch: zone of inhibition at 1000 µg/mL for all items listed.
1. c1ccc2oc(-c3cn4c(-c5cc6ccccc6o5)csc4n3)cc2c1
2. c1ccc(-c2csc3nc(-c4cc5ccccc5o4)cn23)cc1
3. Cc1ccc(-c2csc3nc(-c4cc5ccccc5o4)cn23)cc1

Output:
1: 6 to 23 mm; 2: 6 to 23 mm; 3: 6 to 23 mm
